Substrate: T1, SSB (UniProt P05455)
T1 sequence (looked up): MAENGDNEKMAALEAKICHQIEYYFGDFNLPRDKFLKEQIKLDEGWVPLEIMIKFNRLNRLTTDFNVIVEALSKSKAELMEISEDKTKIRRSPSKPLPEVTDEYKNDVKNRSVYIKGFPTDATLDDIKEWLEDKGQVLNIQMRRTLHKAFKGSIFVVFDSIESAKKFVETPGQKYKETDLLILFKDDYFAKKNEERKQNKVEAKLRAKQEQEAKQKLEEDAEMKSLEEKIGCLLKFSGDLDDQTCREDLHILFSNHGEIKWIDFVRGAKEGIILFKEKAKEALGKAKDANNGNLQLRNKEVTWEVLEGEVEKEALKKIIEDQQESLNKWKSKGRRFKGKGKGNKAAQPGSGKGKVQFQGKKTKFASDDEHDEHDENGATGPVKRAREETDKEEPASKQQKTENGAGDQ
ASSAY_METHOD_TEXT: AtheNA, Ab 12.5 ug/ml
READOUT_KIND: Athena reading (relative luminescence units)

{"BINDER": "CH241 (antibody, from a related filing, V domains shown) VH: QVQLVQSGAAVKKPGASVRVSCKASGYTFTSSHIHWVRQAPGQGPEWMGMIDPSVGRPTTAGKFQGRVTMTRDRYTSTAYMDLSSLRSEDTAVYYCARSVETTGSLLYFDYWGQGTLITVSS VL: EIVLTQSPATLSVSPGERATLSCRASQSVRSNIAWYQQKPGQAPRLLIHGASTRATGIPGRFSGSGSGPEFTLAISSVQSEDFAVYYCQQYNDWWTFGQGTKVEIK", "READOUT_VALUE": 8}
{"BINDER": "CH236_4A/293i (antibody, from a related filing, V domains shown) VH: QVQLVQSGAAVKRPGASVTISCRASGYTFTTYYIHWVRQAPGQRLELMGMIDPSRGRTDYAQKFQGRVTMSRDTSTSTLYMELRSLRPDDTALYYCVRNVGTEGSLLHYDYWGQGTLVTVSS VL: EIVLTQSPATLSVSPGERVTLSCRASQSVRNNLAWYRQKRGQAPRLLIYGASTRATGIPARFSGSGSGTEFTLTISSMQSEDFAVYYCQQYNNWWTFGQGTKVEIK", "READOUT_VALUE": 63}
{"BINDER": "CH239_4A/293i (antibody, from a related filing, V domains shown) VH: QVQLVQSGAEVRKPGASVTVSCKASGYTFNNFYVHWVRQAPGQGLECMGWIDPSVGRINYAQKFQGRVTMTRDRSTSTVYMGLSSLRSEDTAIYYCVRDVGTEGSLLHFDHWGQGTLVIVSA VL: EIVLTQSPATLSVSPGERATLSCRATQSVRSNVAWYQQKPGQAPRLLIYSASTRATGIPARFSGSGSGTEFTLTIASMQSEDFAVYYCLQYDDWWTFGQGTKVEIK", "READOUT_VALUE": 6}
{"BINDER": "CH240_4A/293i (antibody, from a related filing, V domains shown) VH: QVQLVQSGTEVRKPGASVTISCKASGYTFNNFYVHWVRQAPGQGLECMGWIDPSVGRISYGQKFQGRVTMTRDRSTSTVYMGLSSLRSEDTAMYYCVRDVGTEGSLLHFDHWGQGTLVIVSA VL: EIVLTQSPATLSVSPGERATLSCRATQSVRSNLAWYQQKRGQAPRLLIYSASTRATGIPARFSGSGSGTEFTLTISSVQSEDFAVYYCLQYNNWWTFGQGTKVEIK", "READOUT_VALUE": 5}
{"BINDER": "CH235_4A (antibody, from a related filing, V domains shown) VH: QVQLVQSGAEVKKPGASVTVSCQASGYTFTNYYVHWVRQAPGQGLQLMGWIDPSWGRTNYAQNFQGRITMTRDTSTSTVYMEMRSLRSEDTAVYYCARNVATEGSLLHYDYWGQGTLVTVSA VL: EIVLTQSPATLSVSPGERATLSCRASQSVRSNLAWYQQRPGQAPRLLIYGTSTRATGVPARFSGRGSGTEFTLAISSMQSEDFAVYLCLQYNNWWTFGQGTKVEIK", "READOUT_VALUE": 5}
